Test system: CCRF-CEM leukemia
Assay: NCI tumour cell line growth inhibition, 48 h

[
  {
    "compound": "CCC1CC(C)C(O)/C=C/C=C/CC(C)OC(=O)CC(O)C(OC)C1OC1OC(C)CC(O)(C(C)=O)C1O (centres undefined)",
    "TGI": "> 100 µM"
  },
  {
    "compound": "CCCCC1CC(c2ccc(Cl)cc2)=NO1 (centres undefined)",
    "TGI": "> 100 µM"
  },
  {
    "compound": "Cn1c(=O)n(CCCO)c(=O)c2c1nc(Oc1cccc(OC(F)(F)F)c1)n2Cc1ccc(Cl)cc1",
    "TGI": "39.8 µM"
  },
  {
    "compound": "COc1cc(/C=C/C(=O)Nc2ccc3c(c2)/C(=C\\c2cccn2C)C(=O)N3)cc(OC)c1OC",
    "TGI": "33.5 µM"
  },
  {
    "compound": "CCOC(=O)c1csc(CCCCCCc2nc(C(=O)OCC)cs2)n1",
    "TGI": "> 63.9 µM"
  },
  {
    "compound": "O=C(Nc1ccccn1)/C(=C\\C(=O)c1ccc(Cl)cc1)Nc1ccccc1",
    "TGI": "> 10 µM"
  },
  {
    "compound": "CCOC(=O)/C(=C\\c1ccccc1)C(=O)CCN1CCOCC1",
    "TGI": "3.95 µM"
  },
  {
    "compound": "Cc1c(S(=O)(=O)/N=C(\\NN)Nc2ccc(Cl)cc2)sc2ccc(Cl)cc12",
    "TGI": "> 100 µM"
  },
  {
    "compound": "CN(C)c1nc(=Nc2ccc3c(c2)OCO3)ss1",
    "TGI": "> 100 µM"
  },
  {
    "compound": "O=C(CN=C(CN(c1ccccc1)c1ccccc1)Oc1c(Cl)cc(Cl)cc1Cl)N1c2ccccc2Sc2ccccc21",
    "TGI": "> 100 µM"
  },
  {
    "compound": "O=C1NC(=O)/C(=C/c2c(Cl)nc3sccn23)S1",
    "TGI": "> 100 µM"
  },
  {
    "compound": "COc1ccc2c3c1O[C@H]1[C@@H](O)CC[C@@]4(O)[C@@H](C2)N(C)CC[C@]314",
    "TGI": "> 100 µM"
  },
  {
    "compound": "COC(=O)Cc1cccc2c1CCC2=O",
    "TGI": "> 100 µM"
  },
  {
    "compound": "CN(C)CCN=C1c2ccccc2-c2c(=O)n(CCN(C)C)c(O)c3cccc1c23",
    "TGI": "10.5 µM"
  },
  {
    "compound": "CC1=NCC[N+]1(CCc1ccccc1)Cc1ccccc1 (centres undefined)",
    "TGI": "> 100 µM"
  },
  {
    "compound": "CN(C)c1[se]nc2c1c(=O)n(C)c(=O)n2C",
    "TGI": "> 100 µM"
  },
  {
    "compound": "C=C1C(=O)O[C@H]2[C@H]1CC/C(CNC(=O)c1cccc3ccccc13)=C\\CC[C@@]1(C)O[C@@H]21",
    "TGI": "6.03 µM"
  },
  {
    "compound": "O=[N+]([O-])c1ccc(C2N3CCCCC3[C@H]3CCCCN23)cc1 (some centres undefined)",
    "TGI": "> 100 µM"
  },
  {
    "compound": "CCOC(=O)c1c(NC(=O)COc2cccc3cccnc23)sc(C(=O)N(C)C)c1C",
    "TGI": "82.3 µM"
  },
  {
    "compound": "O=C1C=CC(=O)c2c(O)ccc(O)c21",
    "TGI": "0.966 µM"
  },
  {
    "compound": "COc1ccc(C(=C[N+](=O)[O-])c2ccc(OC)cc2)cc1",
    "TGI": "> 92.7 µM"
  },
  {
    "compound": "O=C1NC2c3c(I)sc(I)c3/C(=N\\O)C2O1 (centres undefined)",
    "TGI": "80.3 µM"
  },
  {
    "compound": "O=C1c2ccccc2-c2ccccc2C(=O)C1(Br)Br",
    "TGI": "9.26 µM"
  },
  {
    "compound": "Cn1c2c([N+](=O)[O-])cccc2c(=O)c2c(O)cc3c(c21)C=CC(C)(C)O3",
    "TGI": "> 100 µM"
  },
  {
    "compound": "COc1cc(/C=C/C(=O)c2ccc(Nc3nc(Nc4ccc(F)cc4)nc(Nc4ccc(Cl)cc4)n3)cc2)cc(OC)c1OC",
    "TGI": "6.69 µM"
  },
  {
    "compound": "COC1CCN(N(C)C)O1 (centres undefined)",
    "TGI": "> 100 µM"
  },
  {
    "compound": "CC(C)/C(Cl)=N\\OC(=O)Nc1ccc(F)cc1",
    "TGI": "3.62 µM"
  },
  {
    "compound": "Cc1cccc(C(C)(C)C)c1NC(=O)CCl",
    "TGI": "> 100 µM"
  },
  {
    "compound": "CC(/C=N/N(C)C1=NCCCN1)=N/N(C)C1=NCCCN1",
    "TGI": "> 100 µM"
  },
  {
    "compound": "CCN(CC)CCn1ncc2c3c(=O)c4cccnc4n(CCN(CC)CC)c3ccc21",
    "TGI": "> 10 µM"
  },
  {
    "compound": "c1ccc(NNC2=NCCN2)cc1",
    "TGI": "> 100 µM"
  },
  {
    "compound": "O=C1C=CC(=O)c2c(O)c(N3CCN(c4ccccn4)CC3)c(Cl)c(O)c21",
    "TGI": "1.84 µM"
  },
  {
    "compound": "CCCOP1(=O)C=C(O)C(Cl)=C(C)C1 (centres undefined)",
    "TGI": "> 100 µM"
  },
  {
    "compound": "N#C/C(=C\\c1cn(Cc2ccccc2)c2ccccc12)C(=O)Nc1ncc(Cc2ccccc2Cl)s1",
    "TGI": "> 100 µM"
  },
  {
    "compound": "O=C1c2scc(-c3ccccc3)c2-n2cccc21",
    "TGI": "60.8 µM"
  },
  {
    "compound": "O=C1C(Cl)C(c2cc(Br)cc(Br)c2O)N1n1cnc2ccccc2c1=O (centres undefined)",
    "TGI": "49.5 µM"
  },
  {
    "compound": "CCOC(=O)c1ccc2c(c1)[n+](=O)c(C(=O)C1CCCS1)c(C(F)(F)F)n2[O-] (centres undefined)",
    "TGI": "0.55 µM"
  },
  {
    "compound": "Nc1c(Br)cc2c(c1Br)Cc1cc(Br)ccc1-2",
    "TGI": "> 100 µM"
  },
  {
    "compound": "Fc1c(F)c(F)c2c(c1F)CSc1nc3ccccc3n1-2",
    "TGI": "> 100 µM"
  },
  {
    "compound": "C[CH2][Sn]([CH2]C)([O]C(=O)c1cccc(OC)c1)[O][Sn]([CH2]C)([CH2]C)[O]C(=O)c1cccc(OC)c1",
    "TGI": "17.7 µM"
  },
  {
    "compound": "CC(=O)[CH-]C(=O)c1ccccc1.CC(=O)[CH-]C(=O)c1ccccc1.CCN(CC)CC[O-].CCN(CC)CC[O-].Cl.[Hf+4]",
    "TGI": "> 100 µM"
  },
  {
    "compound": "COc1ccc(C2/C(=C(\\O)c3ccccc3)C(=O)C(O)(CC(=O)c3ccccc3)N2c2ccc(OC)cc2)cc1 (centres undefined)",
    "TGI": "14.5 µM"
  },
  {
    "compound": "COc1cc(C2NCCC(c3ccccc3)(c3ccccc3)N2)cc(OC)c1OC (centres undefined)",
    "TGI": "> 100 µM"
  },
  {
    "compound": "CCCCc1c2c(nc3c1CCCC3=O)C(=O)CCC2",
    "TGI": "> 100 µM"
  }
]
